conditions: normal mice, oral gavage, 3mg/kg; Liver; 6h
endpointName: Drug concentration, time course
Numbers only.

Answered cases to consult:
CC#CCn1c(N2CCC[C@@H](N)C2)nc2c1c(=O)n(Cc1nc(C)c3ccccc3n1)c(=O)n2C : 6000
Cn1c(=O)cc(N2CCC[C@@H](N)C2)n(Cc2ccccc2C#N)c1=O : 3500
CC(C)Cc1ccc(C(C)C(=O)O)cc1 (stereo not shown) : 7600

Please find the next compound below.
Task: For the compound "OC[C@H]1O[C@@H](c2ccc(Cl)c(Cc3ccc(O[C@H]4CCOC4)cc3)c2)[C@H](O)[C@@H](O)[C@@H]1O" , report Drug concentration, time course.
Result: 850
